ASSAY SUMMARY: Growth inhibition of porcine primary hepatocytes after 72 hrs by SRB assay
Format: cell-based, Sus scrofa, Hepatocyte
ASSAY CONTEXT: pig
PROPERTY NAME: GI50 at 72 h

ITEM SMILES	PROPERTY NAME	TEST RESULT
COC(=O)c1sc2cc(C#Cc3cccnc3)cnc2c1N	GI50 at 72 h	> 125 µM
COC(=O)c1sc2cc(-c3ccc(C(F)(F)F)cc3)cnc2c1N	GI50 at 72 h	> 125 µM

Let us move to another entry and its GI50 at 72 h.
GET /value?item= COC(=O)c1sc2cc(C#Cc3cccc(N)c3)cnc2c1N &field=GI50 at 72 h returns > 125 µM
